CONDITIONS: mouse, microsomes
OBSERVED PROPERTY: CL mouse MEAN

INSERT INTO measurements (compound, reported) VALUES
  ('NC(=O)c1sc(N2CCOCC2)cc1OCCN1CCOCC1', '0.8847 mL/min/g'),
  ('NC(=O)c1sc(CN2CCOCC2)cc1OCCc1ccccc1', '3.219 mL/min/g'),
  ('CCNC(=O)c1sc(N2CCOCC2)cc1OCCc1ccccc1', '50 mL/min/g'),
  ('NC(=O)c1sc(-n2cnc3ccccc32)cc1OCCc1ccccc1', '28.23 mL/min/g'),
  ('NC(=O)c1sc(N2CCOCC2)cc1OCC1CCCO1 (stereo not drawn)', '4.249 mL/min/g'),
  ('N#Cc1ccc(CCOc2cc(N3CCOCC3)sc2C(N)=O)cc1', '4.758 mL/min/g'),
  ('NC(=O)c1sc(N2CCOCC2)cc1OCCc1ccncc1', '8.013 mL/min/g'),
  ('CNC(=O)c1sc(N2CC3CC2CO3)cc1OCCc1ccccc1 (stereo not drawn)', '12.51 mL/min/g'),
  ('NC(=O)c1sc(N2CCCCC2)cc1OCCc1ccccc1', '42.23 mL/min/g'),
  ('NC(=O)c1nc(N2CCOCC2)ccc1OCCc1ccccc1', '2.315 mL/min/g'),
  ('NC(=O)c1cc(N2CCOCC2)ccc1OCCc1ccccc1 [Compound 55, 5-Morpholino-2-(2-phenylethoxy)benzamide]', '3.79 mL/min/g'),
  ('CCOC(=O)NC(=O)c1sc(N2CCOCC2)cc1OCCc1ccccc1', '0.9584 mL/min/g'),
  ('NC(=O)c1sc(N2CCOCC2=O)cc1OCCc1ccccc1', '6.629 mL/min/g'),
  ('NC(=O)c1sc(N2CCOCC2)cc1OC1CCc2ccccc21 (stereo not drawn)', '1.393 mL/min/g'),
  ('NC(=O)c1cc(N2CCOCC2)ccc1OCCc1cccc(F)c1', '6.406 mL/min/g');
